Cited source: patent US20260209362A1

dMFI values for the binders below.
- experimental_target: T1, human IL-12Rβ2 expressed on cells (human, UniProt Q99665 24-862)
- T1 construct: HEK293T cells transiently transfected with a human IL-12Rβ2 plasmid (Genscript OHu21785); also called hIL-12RB2
- T1 sequence: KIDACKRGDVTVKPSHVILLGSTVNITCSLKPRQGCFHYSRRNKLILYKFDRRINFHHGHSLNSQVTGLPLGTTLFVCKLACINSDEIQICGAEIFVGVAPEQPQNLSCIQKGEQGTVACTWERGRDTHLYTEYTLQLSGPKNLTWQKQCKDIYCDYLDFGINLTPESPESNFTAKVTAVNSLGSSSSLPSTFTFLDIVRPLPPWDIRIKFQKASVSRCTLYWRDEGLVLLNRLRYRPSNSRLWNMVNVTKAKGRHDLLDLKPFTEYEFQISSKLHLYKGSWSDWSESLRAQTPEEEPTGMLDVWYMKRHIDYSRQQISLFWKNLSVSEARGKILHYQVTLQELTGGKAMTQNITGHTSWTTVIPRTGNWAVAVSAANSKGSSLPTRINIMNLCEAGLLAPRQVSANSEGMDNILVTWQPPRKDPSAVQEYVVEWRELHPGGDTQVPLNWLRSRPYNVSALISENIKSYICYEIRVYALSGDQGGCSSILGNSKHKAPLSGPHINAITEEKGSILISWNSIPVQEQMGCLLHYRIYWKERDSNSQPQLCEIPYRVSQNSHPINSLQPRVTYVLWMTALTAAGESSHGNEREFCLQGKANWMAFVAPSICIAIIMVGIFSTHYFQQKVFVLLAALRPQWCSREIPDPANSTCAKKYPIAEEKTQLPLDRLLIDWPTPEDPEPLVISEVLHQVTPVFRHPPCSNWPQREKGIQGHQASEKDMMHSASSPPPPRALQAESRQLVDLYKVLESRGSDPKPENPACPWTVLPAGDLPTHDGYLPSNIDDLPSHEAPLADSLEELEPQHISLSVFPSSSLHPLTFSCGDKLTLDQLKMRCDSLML
- method_description: flow cytometry, P.E. VHH on HEK293T cells transiently expressing hIL-12RB2
Keep the answer to the number alone.

Endpoint output: dMFI of anti-IL-12Rβ2 VHH clone 3CRH5 (VHH, not shown: small tags and cut ends, tested as periplasmic extract; also called 3CRHS) VHH: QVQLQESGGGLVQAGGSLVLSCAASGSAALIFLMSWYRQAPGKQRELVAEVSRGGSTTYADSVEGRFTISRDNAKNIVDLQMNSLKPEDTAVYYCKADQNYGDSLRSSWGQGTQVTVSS . Value?
735

Find the recorded dMFI belonging to anti-IL-12Rβ2 VHH clone 3CAHS171 (VHH, not shown: small tags and cut ends, tested as periplasmic extract; also called 3CANS171) VHH: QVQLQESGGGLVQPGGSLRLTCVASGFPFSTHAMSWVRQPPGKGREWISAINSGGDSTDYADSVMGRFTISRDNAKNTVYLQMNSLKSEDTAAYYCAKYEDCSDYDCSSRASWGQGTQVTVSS and report it.
1180

Requested read-out: dMFI. Entry: anti-IL-12Rβ2 VHH clone 3CRHS51 (VHH, not shown: small tags and cut ends, tested as periplasmic extract; also called 3CRASS1) VHH: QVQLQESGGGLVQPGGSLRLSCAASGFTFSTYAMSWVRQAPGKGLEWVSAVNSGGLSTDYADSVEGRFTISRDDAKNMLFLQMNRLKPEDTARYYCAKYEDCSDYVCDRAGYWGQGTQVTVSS
1140

Quick one: dMFI of anti-IL-12Rβ2 VHH clone 3CAHS124 (VHH, not shown: small tags and cut ends, tested as periplasmic extract) VHH: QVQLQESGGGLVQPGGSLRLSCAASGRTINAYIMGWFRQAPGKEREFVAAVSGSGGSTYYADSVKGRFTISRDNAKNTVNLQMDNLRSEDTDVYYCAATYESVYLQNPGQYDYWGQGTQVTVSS ?
1100

Find the recorded dMFI belonging to anti-IL-12Rβ2 VHH clone 3CAHM11 (VHH, not shown: small tags and cut ends, tested as periplasmic extract) VHH: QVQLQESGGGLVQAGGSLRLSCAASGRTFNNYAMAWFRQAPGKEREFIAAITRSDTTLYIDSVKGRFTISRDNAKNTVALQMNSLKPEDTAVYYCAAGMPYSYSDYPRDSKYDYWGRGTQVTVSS and report it.
684

Suppose we examine the binder anti-IL-12Rβ2 VHH clone 3CRHM73 (VHH, not shown: small tags and cut ends, tested as periplasmic extract; also called 21060) VHH: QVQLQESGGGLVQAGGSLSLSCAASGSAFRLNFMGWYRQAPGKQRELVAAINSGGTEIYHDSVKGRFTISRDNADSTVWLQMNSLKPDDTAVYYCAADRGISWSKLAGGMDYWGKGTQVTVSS ; what dMFI value has been reported?
297

// query dMFI value for entry anti-IL-12Rβ2 VHH clone 3CRH25 (VHH, not shown: small tags and cut ends, tested as periplasmic extract) VHH: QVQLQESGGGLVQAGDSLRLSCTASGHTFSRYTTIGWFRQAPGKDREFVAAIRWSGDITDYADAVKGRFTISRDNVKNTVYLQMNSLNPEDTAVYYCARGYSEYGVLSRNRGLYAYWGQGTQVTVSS
520

Which value of dMFI has been reported for anti-IL-12Rβ2 VHH clone 3CRHS163 (VHH, not shown: small tags and cut ends, tested as periplasmic extract) VHH: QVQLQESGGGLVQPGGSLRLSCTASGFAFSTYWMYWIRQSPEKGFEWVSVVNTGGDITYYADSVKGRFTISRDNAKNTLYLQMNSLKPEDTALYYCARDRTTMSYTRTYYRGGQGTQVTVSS in the records?
1050
